Target Under Test: UniProt P25101
Sequence (P25101 21-427): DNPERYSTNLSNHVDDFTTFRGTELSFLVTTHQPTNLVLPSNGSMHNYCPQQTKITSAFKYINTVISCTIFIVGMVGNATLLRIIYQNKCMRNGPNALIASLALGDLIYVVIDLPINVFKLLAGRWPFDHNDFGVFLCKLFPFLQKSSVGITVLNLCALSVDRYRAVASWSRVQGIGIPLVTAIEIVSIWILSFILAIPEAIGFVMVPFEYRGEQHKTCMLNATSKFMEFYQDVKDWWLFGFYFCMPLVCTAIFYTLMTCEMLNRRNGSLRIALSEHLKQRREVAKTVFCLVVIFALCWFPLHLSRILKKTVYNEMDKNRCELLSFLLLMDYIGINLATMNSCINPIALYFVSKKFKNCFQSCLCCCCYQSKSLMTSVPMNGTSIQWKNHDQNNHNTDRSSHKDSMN
Test Details: Test on Inhibition of Binding of Endothelin (ET-1) to Human ETA Receptor
Experimental Parameters: inhibition of [^125 I] ET-1 specific binding; COS-1 cell membranes expressing human ETA; pH 7.4, 25° C., three hours; read-out: IC50
For each entry below, report its IC50 value.
Provide the reading as a plain figure in nM.

Need IC50 of CCC(=Cc1ccccc1)S(=O)(=O)Nc1nc(-c2ncccn2)nc(OC)c1Oc1ccccc1OC.[K] [Example 38] , thanks.
3.3

Continue with COc1ccccc1Oc1c(NS(=O)(=O)C=Cc2ccccc2)nc(-c2csc(C)n2)nc1OC [Example 33]
7.7

Also need COc1ccccc1Oc1c(NS(=O)(=O)C=Cc2ccccc2Cl)nc(-c2ncccn2)nc1OC [Example 47] , thanks.
3

Queued: C#CCOc1nc(-c2ncccn2)nc(NS(=O)(=O)C=Cc2ccccc2)c1Oc1ccccc1OC [Example 13]
5.5

Similarly, COc1ccccc1Oc1c(NS(=O)(=O)C=Cc2ccccc2)nc(-c2ncccn2)nc1OCCF [Example 8] ?
2.9

Quick one: COc1ccccc1Oc1c(NS(=O)(=O)C=Cc2ccc(C)cc2)nc(-c2ncccn2)nc1OC [Example 39]
2.8

What do you get for COCCOc1nc(-c2ncccn2)nc(NS(=O)(=O)C=Cc2ccccc2)c1Oc1ccccc1OC [Example 6] ?
4.8

Note, next up: COc1ccccc1Oc1c(NS(=O)(=O)C=Cc2cccs2)nc(-c2ncccn2)nc1OC [Example 42]
1.5

Another compound to look at: COc1ccccc1Oc1c(NS(=O)(=O)C=Cc2ccc3ccccc3c2)nc(-c2ncccn2)nc1OC [Example 45]
4.4

Same read-out for COc1ccccc1Oc1c(NS(=O)(=O)C=Cc2ccccc2)nc(-c2ccncc2)nc1OC [Example 27] ?
5.9

Next up: COc1ccccc1Oc1c(NS(=O)(=O)C=Cc2ccccc2)nc(-c2ccoc2)nc1OC [Example 34]
9.7

Here is the next compound: COc1ccccc1Oc1c(NS(=O)(=O)C=Cc2ccccc2)nc(-c2ccsc2)nc1OC [Example 32]
5.1

# iterate: COc1ccccc1Oc1c(NS(=O)(=O)C(C)=Cc2ccccc2)nc(-c2ncccn2)nc1OC [Example 37]
1.6

What do you get for COc1cc(OC)cc(-c2nc(NS(=O)(=O)C=Cc3ccccc3)c(Oc3ccccc3OC)c(OC)n2)c1 [Example 22] ?
9.5

Same read-out for COc1ccccc1Oc1c(NS(=O)(=O)C=Cc2ccccc2)nc(-c2ncccn2)nc1OCCO [Example 1] ?
1.6
